Can you tell me percent inhibition of viability for the items I'm about to list?
Tested on: KAI3 (IL-2 2.5 ng/mL)
Assay: percent inhibition of viability; higher = more inhibition;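 also: normalised to DMSO-only wells as negative and benzethonium chloride as positive control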
Settings: 72 h; 2500 nM
Could you give me the number in %? Just the number is fine.

Exam item: So what does the record say about percent inhibition of viability for O=C(Nc1ccc(OC(F)(F)F)cc1)c1sccc1NCc1ccnc2ccccc12 [OSI-930] (max concentration tested 2500 nM) ?
Marked response: 4.42

Exam item: Endpoint output: percent inhibition of viability of COc1ccc(CCc2nc3cc(-c4c(C)noc4C)ccc3n2C[C@H](C)N2CCOCC2)cc1Cl [SGC-CBP30] (max concentration tested 25000 nM) . Value?
Marked response: -12.8

Exam item: Given the compound CCN1CCN(Cc2ccc(Nc3ncc(F)c(-c4cc(F)c5nc(C)n(C(C)C)c5c4)n3)nc2)CC1 [Abemaciclib] (max concentration tested 2500 nM) , what is its reported percent inhibition of viability?
Marked response: 11.8

Exam item: Name the recorded percent inhibition of viability for CC(C)(O)CC(=O)NCCn1ccc2ncnc(Nc3ccc(Oc4cccc(C(F)(F)F)c4)c(Cl)c3)c21 [TAK-285] (max concentration tested 2500 nM) .
Marked response: -4.47

Exam item: If you can, please state the reported percent inhibition of viability value of Cn1cc(-c2cnn3c(N)c(Br)c([C@@H]4CCCNC4)nc23)cn1 [MK-8776] (max concentration tested 2500 nM) .
Marked response: 78.2

----------
Test system: normal primary NK cells, pool 1 (3 donors) (IL-2 2.5 ng/mL)
Experiment: percent inhibition of viability; higher = more inhibition
Details: 72 h; 2500 nM
Please go through the items and note down their percent inhibition of viability.
// return numeric value only (unit: %, not printed)

Exam item: percent inhibition of viability of COc1ccc(CCc2nc3cc(-c4c(C)noc4C)ccc3n2C[C@H](C)N2CCOCC2)cc1Cl [SGC-CBP30] (max concentration tested 25000 nM) on normal primary NK cells, pool 1 (3 donors) (IL-2 2.5 ng/mL)?
Marked response: 33.8

Exam item: Tell me reported percent inhibition of viability for CCOc1ccn(-c2ccc(F)cc2)c(=O)c1C(=O)Nc1ccc(Oc2ccnc(N)c2Cl)c(F)c1 (max concentration tested 2500 nM) , tested with normal primary NK cells, pool 1 (3 donors) (IL-2 2.5 ng/mL).
Marked response: -8.87

Exam item: Please tell me: percent inhibition of viability of CCN1CCN(Cc2ccc(Nc3ncc(F)c(-c4cc(F)c5nc(C)n(C(C)C)c5c4)n3)nc2)CC1 [Abemaciclib] (max concentration tested 2500 nM) , system normal primary NK cells, pool 1 (3 donors) (IL-2 2.5 ng/mL)?
Marked response: 24.4

Exam item: Given the entry CC(C)(O)CC(=O)NCCn1ccc2ncnc(Nc3ccc(Oc4cccc(C(F)(F)F)c4)c(Cl)c3)c21 [TAK-285] (max concentration tested 2500 nM) , what percent inhibition of viability was observed with normal primary NK cells, pool 1 (3 donors) (IL-2 2.5 ng/mL)?
Marked response: 2.32

----------
System: NKL (IL-2 2.5 ng/mL)
Assay: percent inhibition of viability; higher = more inhibition
Settings: 72 h; 1000 nM
measurement label: percent inhibition of viability (%)
All answers are understood in %, so give the number only.

Exam item: State the recorded percent inhibition of viability for this entry: Nc1cc(C(F)(F)F)c(-c2cc(N3CCOCC3)nc(N3CCOCC3)n2)cn1 [Buparlisib] (max concentration tested 10000 nM)
Marked response: 69.1

Exam item: Quick check: percent inhibition of viability of Cc1sc2c(c1C)C(c1ccc(Cl)cc1)=N[C@@H](CC(=O)OC(C)(C)C)c1nnc(C)n1-2 [(+)JQ1] (max concentration tested 10000 nM) ?
Marked response: 69

Exam item: # percent inhibition of viability lookup, item Oc1ccc2c(c1)CC[C@H](c1ccccc1)[C@@H]2c1ccc(OCCN2CCCC2)cc1 [Lasofoxifene] (max concentration tested 1000 nM)
Marked response: -9.81
